Target: human capsaicin receptor (Homo sapiens, UniProt Q8NER1)
Construct: pBK-CMV expression construct encoding the full length human capsaicin receptor
Sequence (Q8NER1 whole entry): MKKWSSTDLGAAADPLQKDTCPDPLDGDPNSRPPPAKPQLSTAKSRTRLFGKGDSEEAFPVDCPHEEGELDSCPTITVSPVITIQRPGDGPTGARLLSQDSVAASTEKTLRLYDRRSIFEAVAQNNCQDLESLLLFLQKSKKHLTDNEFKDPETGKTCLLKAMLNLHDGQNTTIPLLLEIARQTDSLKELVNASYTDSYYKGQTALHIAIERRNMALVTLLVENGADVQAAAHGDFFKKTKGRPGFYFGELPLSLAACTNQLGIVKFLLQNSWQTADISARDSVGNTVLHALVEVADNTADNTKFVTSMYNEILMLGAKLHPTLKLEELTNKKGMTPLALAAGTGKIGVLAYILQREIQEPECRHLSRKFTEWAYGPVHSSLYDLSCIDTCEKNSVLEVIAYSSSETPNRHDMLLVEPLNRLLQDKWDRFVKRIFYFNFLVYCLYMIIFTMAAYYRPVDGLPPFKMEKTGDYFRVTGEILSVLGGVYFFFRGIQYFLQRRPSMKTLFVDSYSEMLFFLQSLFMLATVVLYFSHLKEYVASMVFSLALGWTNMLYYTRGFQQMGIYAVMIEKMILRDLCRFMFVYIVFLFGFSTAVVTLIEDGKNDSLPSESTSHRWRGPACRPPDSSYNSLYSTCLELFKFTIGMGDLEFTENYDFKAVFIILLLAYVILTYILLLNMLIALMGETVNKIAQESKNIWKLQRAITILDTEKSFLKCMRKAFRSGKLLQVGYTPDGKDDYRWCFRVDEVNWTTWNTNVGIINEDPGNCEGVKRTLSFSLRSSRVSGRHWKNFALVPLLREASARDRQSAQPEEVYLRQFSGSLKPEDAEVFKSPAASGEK
Assay: Calcium mobilization assay, determination of antagonist activity (Example 6)
Conditions: 50% decrease in fluorescence response of cells expressing human capsaicin receptor exposed to capsaicin
recorded-endpoint: IC50

Consider the reported IC50 for these molecules:
FC(F)(F)c1ccc(Nc2nc(N3CCCCC3)nc(N3CCN(c4ncccc4Cl)CC3)n2)cc1 [Compound 52] :: ≤ 1 µM
FC(F)(F)c1cccnc1N1CCN(c2nc(Nc3cccc(Cl)c3)nc(N3CCOCC3)n2)CC1 [Compound 67] :: ≤ 1 µM
FC(F)(F)c1cccnc1N1CCN(c2nc(Nc3ccc(Cl)cc3)nc(N3CCOCC3)n2)CC1 [Compound 63] :: ≤ 1 µM

So what does the record say about IC50 for CCCCN(CCCC)c1nc(Nc2ccc(C(F)(F)F)cc2)nc(N2CCN(c3ncccc3Cl)C[C@H]2C)n1 [Compound 34] ? ≤ 1 µM

So what does the record say about IC50 for C[C@H]1CN(c2ncccc2Cl)CCN1c1nc(Nc2ccc(C(F)(F)F)cc2)nc(N(C)C)n1 [Compound 53] ? ≤ 1 µM

Data origin: patent US20070043049A1
